All figures here come from patent US20220135638A1.

Molecular target: T1, full-length human GIPR (GenBank NM_000164) with an N-terminal FLAG tag on HEK-293T cells (human), P48546
T1 chain: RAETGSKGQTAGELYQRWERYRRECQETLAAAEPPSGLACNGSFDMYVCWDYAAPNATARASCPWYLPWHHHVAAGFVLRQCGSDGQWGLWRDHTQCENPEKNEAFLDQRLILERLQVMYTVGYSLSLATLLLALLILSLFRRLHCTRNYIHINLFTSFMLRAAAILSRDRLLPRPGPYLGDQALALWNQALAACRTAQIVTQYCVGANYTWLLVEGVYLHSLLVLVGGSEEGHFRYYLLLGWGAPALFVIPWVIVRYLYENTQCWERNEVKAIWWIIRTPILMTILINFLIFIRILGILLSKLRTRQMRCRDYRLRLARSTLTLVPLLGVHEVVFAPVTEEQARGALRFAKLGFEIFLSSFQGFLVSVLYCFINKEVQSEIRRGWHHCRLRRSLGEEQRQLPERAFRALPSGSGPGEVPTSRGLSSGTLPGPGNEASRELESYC
Assay: cell-based or functional assay
Numbered stars: 1 amine (or outer) side, 2 acyl side, 3 side chain; on linkers, the order of the positions; unused ones are H or OH. Square brackets hold non-standard residues; d marks the D form. Primed or numbered codes have the meaning given here. Side chains are listed from the residue outwards. Ends that are not written are not given here. * marks the point of attachment. C20 diacid = O=C(O)CCCCCCCCCCCCCCCCCCC(=O)*; C18 diacid = O=C(O)CCCCCCCCCCCCCCCCC(=O)*; C16 diacid = O=C(O)CCCCCCCCCCCCCCC(=O)*; γGlu = O=C(O)[C@H](CCC(=O)[*:2])N[*:1]; Iva = CC[C@](C)(N)C(=O)O; PEG3′ = not defined here; Aib = CC(C)(N)C(=O)O
readout-name: GIP EC50(pM)
Numbers only here, please. The scale is pM.

# example entries with known answers
Y[Aib]EGTFISDYSIALDR[Aib]HQ[Aib]NFVNW[Iva]LAQRPSSGAK([Gly-Gly-Gly-Gly-Gly-γGlu-C20 diacid])PPS (ends and bridges not checked) [Compound No. 455]
2.24
Y[Aib]EGTFISDYSIALDR[Aib]HQ[Aib]NFVNW[Iva]LAQRPSSK([PEG3′-PEG3′-γGlu-C20 diacid])APPPS (ends and bridges not checked) [Compound No. 496]
1.09
Y[Aib]EGTFISDYSIALDR[Aib]HQ[Aib]NFVNW[Iva]LAQRPSSGAK([PEG3′-PEG3′-γGlu-C20 diacid])PPS (ends and bridges not checked) [Compound No. 502]
1.78
Y[Aib]EGTFISDYSIALDR[Aib]HQ[Aib]NFVNW[Iva]LAQRPSSK([Gly-Gly-Gly-Gly-Gly-γGlu-C18 diacid])APPPS (ends and bridges not checked) [Compound No. 448]
0.54

Could you share which GIP EC50(pM) value was measured for Y[Aib]EGTFISDYSIALDR[Aib]HQ[Aib]NFVNW[Iva]LAQRPK([Gly-Gly-Gly-Gly-Gly-γGlu-C18 diacid])SGAPPPS (ends and bridges not checked) [Compound No. 442] ?
1.01

Could you share which GIP EC50(pM) value was measured for Y[Aib]EGTFISDYSIALDR[Aib]HQ[Aib]NFVNW[Iva]LAQRPSK([Gly-Gly-Gly-Gly-Gly-γGlu-C16 diacid])GAPPPS (ends and bridges not checked) [Compound No. 444] ?
0.39

Could you share which GIP EC50(pM) value was measured for Y[Aib]EGTFISDYSIALDR[Aib]HQ[Aib]NFVNW[Iva]LAQRK([PEG3′-γGlu-C18 diacid])SSGAPPPS (ends and bridges not checked) [Compound No. 510] ?
0.83

Could you share which GIP EC50(pM) value was measured for Y[Aib]EGTFISDYSIALDR[Aib]HQ[Aib]NFVNW[Iva]LAQRPK([PEG3′-γGlu-C18 diacid])SGAPPPS (ends and bridges not checked) [Compound No. 513] ?
0.5
